- System: Staphylococcus aureus
- Method description: Antimicrobial activity against Staphylococcus aureus after 24 hrs by broth microdilution method
- Type: functional
# if measured MIC < 2 mg/L: Yes  # else: No

{"Molecule": "O=[N+]([O-])c1ccc(-c2nnc(-c3ccc4nc(-c5cnc6ccc(Br)cc6c5)c(Nc5ccc(F)cc5)n4c3)o2)cc1", "Experimental system": "Staphylococcus aureus", "Qualitative label": "Yes"}
{"Molecule": "O=[N+]([O-])c1ccc(-c2nnc(-c3ccc4nc(-c5c[nH]c6ccc(Br)cc56)c(Nc5ccc(F)cc5)n4c3)o2)cc1", "Experimental system": "Staphylococcus aureus", "Qualitative label": "No"}
{"Molecule": "Fc1ccc(Nc2c(-c3c[nH]c4ccc(F)cc34)nc3sc4cc(F)ccc4n23)cc1", "Experimental system": "Staphylococcus aureus", "Qualitative label": "Yes"}
{"Molecule": "C=CC1=C(C(=O)O)N2C(=O)[C@@H](NC(=O)/C(=N\\OCC(=O)O)c3csc(N)n3)[C@H]2SC1 [CEFIXIME]", "Experimental system": "Staphylococcus aureus", "Qualitative label": "No"}
{"Molecule": "Cc1ccc(-c2nnc(-c3ccc4nc(-c5cnc6ccc(Br)cc6c5)c(Nc5ccc(F)cc5)n4c3)o2)cc1", "Experimental system": "Staphylococcus aureus", "Qualitative label": "Yes"}
{"Molecule": "Fc1ccc(Nc2c(-c3c[nH]c4ccc(Br)cc34)nc3sc4cc(F)ccc4n23)cc1", "Experimental system": "Staphylococcus aureus", "Qualitative label": "Yes"}
{"Molecule": "Fc1ccc(Nc2c(-c3c[nH]c4ccc(Br)cc34)nc3ccc(-c4nnc(-c5ccc(F)cc5)o4)cn23)cc1", "Experimental system": "Staphylococcus aureus", "Qualitative label": "Yes"}
{"Molecule": "O=[N+]([O-])c1ccc2nc(-c3ccc4nc(-c5cnc6ccc(Br)cc6c5)c(Nc5ccc(F)cc5)n4c3)[nH]c2c1", "Experimental system": "Staphylococcus aureus", "Qualitative label": "No"}

====

- Tested on: Nannizzia gypsea
- Method description: Antimicrobial activity against Microsporum gypseum after 48 hrs by broth microdilution method
- Type: functional
Form field: log10 MIC (one value per entry).
Experimental readout: log10 MIC (log10 of the value in µg/mL)

{"Record smiles": "Fc1ccc(Nc2c(-c3cnc4ccc(Br)cc4c3)nc3ccc(-c4nnc(-c5ccc(F)cc5)o4)cn23)cc1", "Experimental system": "Nannizzia gypsea", "Readout number": 0.06}
{"Record smiles": "Fc1ccc(Nc2c(-c3c[nH]c4ccc(Br)cc34)nc3ccc(-c4ncc(-c5ccc(F)cc5)[nH]4)cn23)cc1", "Experimental system": "Nannizzia gypsea", "Readout number": 0.91}
{"Record smiles": "Fc1ccc(Nc2c(-c3cnc4ccc(Br)cc4c3)nc3sc4cc(F)ccc4n23)cc1", "Experimental system": "Nannizzia gypsea", "Readout number": 0.09}
{"Record smiles": "Fc1ccc(Nc2c(-c3c[nH]c4ccc(F)cc34)nc3sc4cc(F)ccc4n23)cc1", "Experimental system": "Nannizzia gypsea", "Readout number": 0.09}
{"Record smiles": "O=[N+]([O-])c1ccc(-c2nnc(-c3ccc4nc(-c5c[nH]c6ccc(Br)cc56)c(Nc5ccc(F)cc5)n4c3)o2)cc1", "Experimental system": "Nannizzia gypsea", "Readout number": 1.05}
{"Record smiles": "Cc1ccc(-c2nnc(-c3ccc4nc(-c5cnc6ccc(Br)cc6c5)c(Nc5ccc(F)cc5)n4c3)o2)cc1", "Experimental system": "Nannizzia gypsea", "Readout number": 1.05}
{"Record smiles": "OC(Cn1cncn1)(Cn1cncn1)c1ccc(F)cc1F", "Experimental system": "Nannizzia gypsea", "Readout number": 0.82}
{"Record smiles": "Fc1ccc(Nc2c(-c3cnc4ccc(F)cc4c3)nc3sc4cc(F)ccc4n23)cc1", "Experimental system": "Nannizzia gypsea", "Readout number": 0.08}
{"Record smiles": "Fc1ccc(Nc2c(-c3cnc4ccc(Br)cc4c3)nc3ccc(-c4ncc(-c5ccc(F)cc5)[nH]4)cn23)cc1", "Experimental system": "Nannizzia gypsea", "Readout number": -0.08}
{"Record smiles": "COc1ccc2c(c1)sc1nc(-c3c[nH]c4ccc(Br)cc34)c(Nc3ccc(F)cc3)n12", "Experimental system": "Nannizzia gypsea", "Readout number": 0.62}
{"Record smiles": "Fc1ccc(Nc2c(-c3cnc4ccc(Br)cc4c3)nc3ccc(-c4nc5ccc(F)cc5[nH]4)cn23)cc1", "Experimental system": "Nannizzia gypsea", "Readout number": 0.08}
{"Record smiles": "Cc1ccc(-c2cnc(-c3ccc4nc(-c5c[nH]c6ccc(Br)cc56)c(Nc5ccc(F)cc5)n4c3)[nH]2)cc1", "Experimental system": "Nannizzia gypsea", "Readout number": 1.19}
{"Record smiles": "O=[N+]([O-])c1ccc2nc(-c3ccc4nc(-c5cnc6ccc(Br)cc6c5)c(Nc5ccc(F)cc5)n4c3)[nH]c2c1", "Experimental system": "Nannizzia gypsea", "Readout number": 0.97}
{"Record smiles": "Fc1ccc(Nc2c(-c3c[nH]c4ccc(Br)cc34)nc3ccc(-c4nc5ccc(F)cc5[nH]4)cn23)cc1", "Experimental system": "Nannizzia gypsea", "Readout number": 0.96}
{"Record smiles": "COc1ccc2ncc(-c3nc4sc5cc(F)ccc5n4c3Nc3ccc(F)cc3)cc2c1", "Experimental system": "Nannizzia gypsea", "Readout number": 1.24}
{"Record smiles": "COc1ccc2[nH]cc(-c3nc4sc5cc(F)ccc5n4c3Nc3ccc(F)cc3)c2c1", "Experimental system": "Nannizzia gypsea", "Readout number": 1.29}
{"Record smiles": "Cc1ccc2ncc(-c3nc4sc5cc(F)ccc5n4c3Nc3ccc(F)cc3)cc2c1", "Experimental system": "Nannizzia gypsea", "Readout number": 1.26}
{"Record smiles": "Cc1ccc(-c2nnc(-c3ccc4nc(-c5c[nH]c6ccc(Br)cc56)c(Nc5ccc(F)cc5)n4c3)o2)cc1", "Experimental system": "Nannizzia gypsea", "Readout number": 1.13}
{"Record smiles": "Cc1ccc(-c2cnc(-c3ccc4nc(-c5cnc6ccc(Br)cc6c5)c(Nc5ccc(F)cc5)n4c3)[nH]2)cc1", "Experimental system": "Nannizzia gypsea", "Readout number": 1.06}
{"Record smiles": "O=[N+]([O-])c1ccc(-c2nnc(-c3ccc4nc(-c5cnc6ccc(Br)cc6c5)c(Nc5ccc(F)cc5)n4c3)o2)cc1", "Experimental system": "Nannizzia gypsea", "Readout number": 0.92}
{"Record smiles": "Fc1ccc(Nc2c(-c3c[nH]c4ccc(Br)cc34)nc3sc4cc(F)ccc4n23)cc1", "Experimental system": "Nannizzia gypsea", "Readout number": 0.50}
{"Record smiles": "O=[N+]([O-])c1ccc(-c2cnc(-c3ccc4nc(-c5c[nH]c6ccc(Br)cc56)c(Nc5ccc(F)cc5)n4c3)[nH]2)cc1", "Experimental system": "Nannizzia gypsea", "Readout number": 0.87}
{"Record smiles": "Cc1ccc2[nH]cc(-c3nc4sc5cc(F)ccc5n4c3Nc3ccc(F)cc3)c2c1", "Experimental system": "Nannizzia gypsea", "Readout number": 1.02}
{"Record smiles": "Fc1ccc(Nc2c(-c3c[nH]c4ccc(Br)cc34)nc3ccc(-c4nnc(-c5ccc(F)cc5)o4)cn23)cc1", "Experimental system": "Nannizzia gypsea", "Readout number": 0.63}
{"Record smiles": "Cc1ccc2nc(-c3ccc4nc(-c5cnc6ccc(Br)cc6c5)c(Nc5ccc(F)cc5)n4c3)[nH]c2c1", "Experimental system": "Nannizzia gypsea", "Readout number": 1.24}

====

Form field: log10(MIC) (one value per entry).
- Test system: Staphylococcus aureus
- Method description: Antimicrobial activity against Staphylococcus aureus after 24 hrs by broth microdilution method
- Type: functional
Experimental readout: log10(MIC) (log10 of the value in µg/mL)

{"Compound": "Fc1ccc(Nc2c(-c3cnc4ccc(Br)cc4c3)nc3ccc(-c4ncc(-c5ccc(F)cc5)[nH]4)cn23)cc1", "log10(MIC)": -0.20}
{"Compound": "Cc1ccc2nc(-c3ccc4nc(-c5cnc6ccc(Br)cc6c5)c(Nc5ccc(F)cc5)n4c3)[nH]c2c1", "log10(MIC)": 0.87}
{"Compound": "COc1ccc2ncc(-c3nc4sc5cc(F)ccc5n4c3Nc3ccc(F)cc3)cc2c1", "log10(MIC)": 1.09}
{"Compound": "Fc1ccc(Nc2c(-c3cnc4ccc(Br)cc4c3)nc3ccc(-c4nc5ccc(F)cc5[nH]4)cn23)cc1", "log10(MIC)": 0.16}
{"Compound": "Cc1ccc(-c2cnc(-c3ccc4nc(-c5c[nH]c6ccc(Br)cc56)c(Nc5ccc(F)cc5)n4c3)[nH]2)cc1", "log10(MIC)": 0.71}
{"Compound": "O=[N+]([O-])c1ccc(-c2cnc(-c3ccc4nc(-c5c[nH]c6ccc(Br)cc56)c(Nc5ccc(F)cc5)n4c3)[nH]2)cc1", "log10(MIC)": 0.40}
{"Compound": "Cc1ccc2[nH]cc(-c3nc4sc5cc(F)ccc5n4c3Nc3ccc(F)cc3)c2c1", "log10(MIC)": 1.00}
{"Compound": "COc1ccc2c(c1)sc1nc(-c3c[nH]c4ccc(Br)cc34)c(Nc3ccc(F)cc3)n12", "log10(MIC)": 0.87}
{"Compound": "Fc1ccc(Nc2c(-c3cnc4ccc(Br)cc4c3)nc3sc4cc(F)ccc4n23)cc1", "log10(MIC)": -0.37}
{"Compound": "Fc1ccc(Nc2c(-c3c[nH]c4ccc(Br)cc34)nc3ccc(-c4ncc(-c5ccc(F)cc5)[nH]4)cn23)cc1", "log10(MIC)": -0.64}
{"Compound": "Cc1ccc(-c2cnc(-c3ccc4nc(-c5cnc6ccc(Br)cc6c5)c(Nc5ccc(F)cc5)n4c3)[nH]2)cc1", "log10(MIC)": 0.29}
{"Compound": "CC1(C)S[C@@H]2[C@H](NC(=O)[C@H](N)c3ccc(O)cc3)C(=O)N2[C@H]1C(=O)O [AMOXICILLIN]", "log10(MIC)": 1.11}
{"Compound": "Cc1ccc2ncc(-c3nc4sc5cc(F)ccc5n4c3Nc3ccc(F)cc3)cc2c1", "log10(MIC)": 0.94}
{"Compound": "Fc1ccc(Nc2c(-c3c[nH]c4ccc(Br)cc34)nc3ccc(-c4nc5ccc(F)cc5[nH]4)cn23)cc1", "log10(MIC)": 0.05}
{"Compound": "Cc1ccc(-c2nnc(-c3ccc4nc(-c5c[nH]c6ccc(Br)cc56)c(Nc5ccc(F)cc5)n4c3)o2)cc1", "log10(MIC)": 0.50}
{"Compound": "Fc1ccc(Nc2c(-c3cnc4ccc(F)cc4c3)nc3sc4cc(F)ccc4n23)cc1", "log10(MIC)": -0.59}
{"Compound": "COc1ccc2[nH]cc(-c3nc4sc5cc(F)ccc5n4c3Nc3ccc(F)cc3)c2c1", "log10(MIC)": 1.24}
{"Compound": "Fc1ccc(Nc2c(-c3cnc4ccc(Br)cc4c3)nc3ccc(-c4nnc(-c5ccc(F)cc5)o4)cn23)cc1", "log10(MIC)": -0.34}
